- PROTOCOL DETAILS: Measurement of birefringence (Δn) of retardation films by Axoscan
- Format: physicochemical
- APPLIED CONDITIONS: retardation film of the compound; solvent TXB, TAC film; Δn calculated from retardation value and film thickness
In this section we review reported Δn (Solvent, Film) values for a set of molecules.
MEASUREMENT KIND: Δn (Solvent, Film)

- C=CC(=O)OCCCOc1ccc2cc(C(=O)Oc3ccc(OC(=O)c4ccc5cc(OCCCOC(=O)C=C)ccc5c4)c(S(C)(=O)=O)c3)ccc2c1 [RM-05]: 0.19 (TXB, TAC)
- C=CC(=O)OCCCOc1ccc2cc(C(=O)Oc3ccc(OC(=O)c4ccc5cc(OCCCOC(=O)C=C)ccc5c4)c(S(=O)(=O)CC)c3)ccc2c1 [RM-07]: 0.19 (TXB, TAC)
- C=CC(=O)OCCCOc1ccc2cc(C(=O)Oc3ccc(OC(=O)c4ccc5cc(OCCCOC(=O)C=C)ccc5c4)c(C=O)c3)ccc2c1 [RM-01]: 0.17 (TXB, TAC)
- C=CC(=O)OCCCCCCOc1ccc2cc(C(=O)Oc3ccc(OC(=O)c4ccc5cc(OCCCCCCOC(=O)C=C)ccc5c4)c(S(=O)(=O)CC)c3)ccc2c1 [RM-08]: 0.22 (TXB, TAC)
- C=CC(=O)OCCCOc1ccc(C(=O)Oc2ccc(OC(=O)c3ccc(OCCCOC(=O)C=C)cc3)c(C)c2)cc1 [RM257, reference compound]: 0.12 (TXB, TAC)
- C=CC(=O)OCCCCCCOc1ccc2cc(C(=O)Oc3ccc(OC(=O)c4ccc5cc(OCCCCCCOC(=O)C=C)ccc5c4)c(S(C)(=O)=O)c3)ccc2c1 [RM-06]: 0.20 (TXB, TAC)
- C=CC(=O)OCCCCCCOc1ccc2cc(C(=O)Oc3ccc(OC(=O)c4ccc5cc(OCCCCCCOC(=O)C=C)ccc5c4)c([N+](=O)[O-])c3)ccc2c1 [RM-04]: 0.20 (TXB, TAC)
- C=CC(=O)OCCCOc1ccc2cc(C(=O)Oc3ccc(OC(=O)c4ccc5cc(OCCCOC(=O)C=C)ccc5c4)c([N+](=O)[O-])c3)ccc2c1 [RM-03]: 0.17 (TXB, TAC)
- C=CC(=O)OCCCCCCOc1ccc2cc(C(=O)Oc3ccc(OC(=O)c4ccc5cc(OCCCCCCOC(=O)C=C)ccc5c4)c(C=O)c3)ccc2c1 [RM-02]: 0.18 (TXB, TAC)

====

- PROTOCOL DETAILS: Measurement of solubility of the compound in various solvents
- Format: physicochemical
- APPLIED CONDITIONS: toluene, room temperature solution heated about 10 secs with a heat gun; 25 parts by weight per 100 parts of solution
- Experimental: At this time, the content of each compound in the solvent was 25 parts by weight per 100 parts by weight of total solution. In the following Table 1, when the compound was completely dissolved in the solvent and the solution was transparent, it was indicated by ‘◯’; when the compound was dissolved in the solvent but the solution was opaque, it was indicated by ‘Δ’; and when the compound was not dissolved at all, it was indicated by ‘×’. […]
MEASUREMENT KIND: Solubility Toluene + Heated

• C=CC(=O)OCCCOc1ccc2cc(C(=O)Oc3ccc(OC(=O)c4ccc5cc(OCCCOC(=O)C=C)ccc5c4)c(S(=O)(=O)CC)c3)ccc2c1 = ∘
• C=CC(=O)OCCCCCCOc1ccc2cc(C(=O)Oc3ccc(OC(=O)c4ccc5cc(OCCCCCCOC(=O)C=C)ccc5c4)c([N+](=O)[O-])c3)ccc2c1 = ∘
• C=CC(=O)OCCCOc1ccc2cc(C(=O)Oc3ccc(OC(=O)c4ccc5cc(OCCCOC(=O)C=C)ccc5c4)c(C=O)c3)ccc2c1 = ∘
• C=CC(=O)OCCCOc1ccc2cc(C(=O)Oc3ccc(OC(=O)c4ccc5cc(OCCCOC(=O)C=C)ccc5c4)c(S(C)(=O)=O)c3)ccc2c1 = ∘
• C=CC(=O)OCCCCCCOc1ccc2cc(C(=O)Oc3ccc(OC(=O)c4ccc5cc(OCCCCCCOC(=O)C=C)ccc5c4)c(C=O)c3)ccc2c1 = ∘
• C=CC(=O)OCCCCCCOc1ccc2cc(C(=O)Oc3ccc(OC(=O)c4ccc5cc(OCCCCCCOC(=O)C=C)ccc5c4)c(S(=O)(=O)CC)c3)ccc2c1 = ∘
